assay: in vivo; conditions: Sprague-Dawley, rat
ENDPOINT NAME: log10(clearance) (log10 of the value in mL/min/kg)
All values: log10 clearance [mL/min/kg].

These recorded examples may help you get a feel for the data.
COMPOUND	ENDPOINT NAME	READOUT NUMBER
Cc1cccnc1CN1CCC2(CC1)C(=O)N(c1ccc(-c3ccccc3)cc1)C(=O)N2c1ccc(O)nn1	log10(clearance)	1.60
Cc1cccnc1CN1CCC2(CC1)C(=O)N(c1ccc(-c3ccccc3)cc1)c1ncccc12	log10(clearance)	1.77
Cc1cc(C(=O)O)ccc1-c1ccc(N2C(=O)N(c3ccncn3)C3(CCN(Cc4ncccc4C)CC3)C2=O)cc1	log10(clearance)	1.53
Cc1cccnc1CN1CCC2(CC1)C(=O)N(c1ccc(-c3ccccc3)cc1)C(=O)N2c1cc(O)ccn1	log10(clearance)	1.54
Cc1cccnc1CN1CCC2(CC1)NC(=O)N(c1ccc(-c3ccccc3)cc1)C2=O	log10(clearance)	2.44

For this compound ( Cc1cccnc1CN1CCC2(CC1)C(=O)N(c1ccc(-c3ccc(C(=O)O)cc3)cc1)C(=O)N2c1ccncn1 ), measured log10(clearance) is 1.20

###

assay: Cmax in mouse at 5 mg/kg, po; assay type: ADME, organism-based; design: dose 5 mg/kg, route oral; conditions: in vivo
ENDPOINT NAME: Cmax (nM)
The response must be a number in nM with no trailing unit.

These recorded examples may help you get a feel for the data.
COMPOUND	ENDPOINT NAME	READOUT NUMBER
Cc1cccnc1CN1CCC2(CC1)C(=O)N(c1ccc(-c3ccccc3)cc1)C(=O)N2c1nccc(O)n1	Cmax	990
COc1cc(N2C(=O)N(c3ccc(-c4ccc(C(=O)O)cc4)cc3)C(=O)C23CCN(Cc2ncccc2C)CC3)ncn1	Cmax	6100

We next turn to a different compound, shown below.
For this compound ( Cc1cccnc1CN1CCC2(C(=O)N(c3ccc(-c4ccccc4)cc3)C(=O)N2c2cc(O)ncn2)C(C(=O)O)C1 (stereo not drawn) ), measured Cmax is 300

###

experiment: in vivo; details: Sprague-Dawley, rat
ENDPOINT NAME: half-life
Reply with a number, then the unit it belongs to.

These recorded examples may help you get a feel for the data.
COMPOUND	RESULT
Cc1cccnc1CN1CCC2(CC1)C(=O)N(c1ccc(-c3ccc(C(=O)O)cc3)cc1)C(=O)N2c1ccncn1	2.2 h
Cc1cccnc1CN1CCC2(CC1)C(=O)N(c1ccc(-c3ccccc3)cc1)C(=O)N2c1cc(O)ccn1	0.5 h
Cc1cccnc1CN1CCC2(CC1)C(=O)N(c1ccc(-c3ccc(C(=O)O)cc3)cc1)C(=O)N2c1ncccn1	1.1 h
Cc1cccnc1CN1CCC2(C(=O)N(c3ccc(-c4ccccc4)cc3)C(=O)N2c2cc(O)ncn2)C(C(=O)O)C1 (stereo not drawn)	3.6 h
Cc1cc(C(=O)O)ccc1-c1ccc(N2C(=O)N(c3ccncn3)C3(CCN(Cc4ncccc4C)CC3)C2=O)cc1	1.1 h

For this compound ( Cc1cccnc1CN1CCC2(CC1)C(=O)N(c1ccc(-c3ccccc3)cc1)C(=O)N2c1nccc(O)n1 ), measured half-life is 1.1 h

For this compound ( Cc1cccnc1CN1CCC2(NC(=O)N(c3ccc(-c4ccccc4)cc3)C2=O)C(C(=O)O)C1 (stereo not drawn) ), measured half-life is 1.1 h

For this compound ( Cc1cccnc1CN1CCC2(CC1)C(=O)N(c1ccc(-c3ccccc3)cc1)C(=O)N2c1ccc(O)nn1 ), measured half-life is 1.2 h

###

assay: Oral bioavailability in dog; type: ADME, organism-based, Canis lupus familiaris; details: in vivo
ENDPOINT NAME: bioavailability (%)
The response must be a number in % with no trailing unit.

For this molecule ( Cc1cccnc1CN1CCC2(CC1)C(=O)N(c1ccc(-c3ccccc3)cc1)C(=O)N2c1nccc(O)n1 ), measured bioavailability is 26

###

test: in vivo; settings: Sprague-Dawley, rat
Tag: 1 if measured Vd is not below 1 L/kg, 0 if it is.

COMPOUND	CLASS NAME
Cc1cccnc1CN1CCC2(CC1)C(=O)N(c1ccc(-c3ccccc3)cc1)C(=O)N2c1ccc(O)nn1	1
Cc1cccnc1CN1CCC2(CC1)C(=O)N(c1ccc(-c3ccc(C(=O)O)cc3)cc1)C(=O)N2c1ccncn1	1
Cc1cccnc1CN1CCC2(NC(=O)N(c3ccc(-c4ccccc4)cc3)C2=O)C(C(=O)O)C1 (stereo not drawn)	0

Moving on to the next compound.
Could you tell me if the measured Vd of Cc1cccnc1CN1CCC2(CC1)C(=O)N(c1ccc(-c3ccccc3)cc1)C(=O)N2c1ccnc(O)n1 reaches 1 L/kg or more?
0

###

Quick reference: bioavailability of the listed items.
experiment: in vivo; details: Sprague-Dawley, rat, po
The response must be a number in % with no trailing unit.

COMPOUND	bioavailability, %
Cc1cccnc1CN1CCC2(CC1)C(=O)N(c1ccc(-c3ccccc3)cc1)C(=O)N2c1ccc(O)nn1	58
Cc1cc(C(=O)O)ccc1-c1ccc(N2C(=O)N(c3cnccn3)C3(CCN(Cc4ncccc4C)CC3)C2=O)cc1	29
Cc1cccnc1CN1CCC2(CC1)C(=O)N(c1ccc(-c3ccc(C(=O)O)cc3)cc1)C(=O)N2c1ncccn1	18

We next turn to a different compound, shown below.
For this compound ( COc1cc(N2C(=O)N(c3ccc(-c4ccc(C(=O)O)cc4)cc3)C(=O)C23CCN(Cc2ncccc2C)CC3)ncn1 ), measured bioavailability is 92

###

assay: in vivo; conditions: Sprague-Dawley, rat
Field: label. Allowed values: 1 (Cmax < 400 nM) or 0 (Cmax >= 400 nM).

Before answering, review these 6 worked examples.
COMPOUND	CLASS NAME
Cc1cccnc1CN1CCC2(CC1)C(=O)N(c1ccc(-c3ccc(C(=O)O)cc3)cc1)C(=O)N2c1ccncn1	0
Cc1cccnc1CN1CCC2(CC1)C(=O)N(c1ccc(-c3ccccc3)cc1)c1ccccc12	1
Cc1cccnc1CN1CCC2(CC1)C(=O)N(c1ccc(-c3ccccc3)cc1)C(=O)N2c1ncccn1	1
Cc1cccnc1CN1CCC2(C(=O)N(c3ccc(-c4ccccc4)cc3)C(=O)N2c2cc(O)ncn2)C(C(=O)O)C1 (centres undefined)	1
Cc1cccnc1CN1CCC2(CC1)C(=O)N(c1ccc(-c3ccccc3)cc1)C(=O)N2c1ccnc(O)n1	0
Cc1cccnc1CN1CCC2(CC1)C(=O)N(c1ccc(-c3ccccc3)cc1)C(=O)N2c1cc(O)ccn1	1

Moving on to the next compound.
Take the compound Cc1cccnc1CN1CCC2(NC(=O)N(c3ccc(-c4ccccc4)cc3)C2=O)C(C(=O)O)C1 (centres undefined) and say whether its Cmax is less than 400 nM.
1

###

Quick reference: half-life of the listed items.
test: in vivo; details: Sprague-Dawley, rat
The response must be a number in h with no trailing unit.

For this compound ( Cc1cccnc1CN1CCC2(CC1)C(=O)N(c1ccc(-c3ccccc3)cc1)c1ccccc12 ), measured half-life is 3

For this compound ( Cc1cccnc1CN1CCC2(CC1)NC(=O)N(c1ccc(-c3ccccc3)cc1)C2=O ), measured half-life is 0.12

For this compound ( Cc1cccnc1CN1CCC2(CC1)C(=O)N(c1ccc(-c3ccccc3)cc1)c1ncccc12 ), measured half-life is 1.9

###

assay: in vivo; details: Sprague-Dawley, rat
ENDPOINT NAME: clearance

These recorded examples may help you get a feel for the data.
COMPOUND	RESULT
Cc1cccnc1CN1CCC2(NC(=O)N(c3ccc(-c4ccccc4)cc3)C2=O)C(C(=O)O)C1 (stereo unspecified)	11 mL/min/kg
Cc1cccnc1CN1CCC2(CC1)C(=O)N(c1ccc(-c3ccccc3)cc1)C(=O)N2c1nccc(O)n1	9 mL/min/kg

For this compound ( Cc1cccnc1CN1CCC2(CC1)C(=O)N(c1ccc(-c3ccccc3)cc1)C(=O)N2c1ccnc(O)n1 ), measured clearance is 14 mL/min/kg

For this compound ( Cc1cc(C(=O)O)ccc1-c1ccc(N2C(=O)N(c3cnccn3)C3(CCN(Cc4ncccc4C)CC3)C2=O)cc1 ), measured clearance is 22 mL/min/kg

For this compound ( Cc1cccnc1CN1CCC2(CC1)C(=O)N(c1ccc(-c3ccccc3)cc1)c1ccccc12 ), measured clearance is 30 mL/min/kg

For this compound ( Cc1cccnc1CN1CCC2(CC1)C(=O)N(c1ccc(-c3ccc(C(=O)O)cc3)cc1)C(=O)N2c1ncccn1 ), measured clearance is 51 mL/min/kg

###

Quick reference: Vd of the listed items.
experiment: in vivo; settings: Sprague-Dawley, rat
Reply with a number, then the unit it belongs to.

These recorded examples may help you get a feel for the data.
SMILES STR	Vd
Cc1cccnc1CN1CCC2(CC1)C(=O)N(c1ccc(-c3ccccc3)cc1)C(=O)N2c1nccc(O)n1	0.72 L/kg
Cc1cccnc1CN1CCC2(CC1)NC(=O)N(c1ccc(-c3ccccc3)cc1)C2=O	2.6 L/kg
COc1cc(N2C(=O)N(c3ccc(-c4ccc(C(=O)O)cc4)cc3)C(=O)C23CCN(Cc2ncccc2C)CC3)ncn1	1.7 L/kg

We next turn to a different compound, shown below.
For this compound ( Cc1cccnc1CN1CCC2(CC1)C(=O)N(c1ccc(-c3ccccc3)cc1)C(=O)N2c1cc(O)ccn1 ), measured Vd is 1.4 L/kg
